- target_or_test_system: human kisspeptin receptor (Homo sapiens (Human))
- Sequence (Q969F8 whole entry): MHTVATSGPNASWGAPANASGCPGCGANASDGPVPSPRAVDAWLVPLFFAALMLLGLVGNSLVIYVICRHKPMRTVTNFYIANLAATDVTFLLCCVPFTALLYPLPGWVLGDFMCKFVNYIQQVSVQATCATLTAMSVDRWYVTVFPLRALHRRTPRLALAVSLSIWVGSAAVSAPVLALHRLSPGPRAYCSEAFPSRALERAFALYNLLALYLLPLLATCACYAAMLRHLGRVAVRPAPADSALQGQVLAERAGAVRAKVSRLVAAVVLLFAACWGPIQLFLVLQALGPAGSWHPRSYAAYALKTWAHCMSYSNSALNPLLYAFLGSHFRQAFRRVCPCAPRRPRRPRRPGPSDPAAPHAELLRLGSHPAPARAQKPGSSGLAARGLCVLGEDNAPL
- experimental_details: Human KISS1R binding assay (membrane competition binding)
- condition_context: 90 min at room temperature; competition with 0.2 nM [125I]-metastin (45-54); Flp-In T-Rex 293 kisspeptin membranes; metal complexes nonradioactive Ga, In, Lu; read-out: hKiSSR Binding Ki (90 min)
pKi: −log10 of the molar value. Square brackets hold non-standard residues; d marks the D form. Peptide text beside a SMILES is read from it. * marks the point of attachment. DOTA = O=C(O)CN1CCN(CC(=O)O)CCN(CC(=O)*)CCN(CC(=O)O)CC1; Gly(N-(3-F-4-Me-benzyl)) = Cc1ccc(CNCC(=O)*)cc1F; Gly(N-3-F-4-Me-benzyl) = Cc1ccc(CNCC(=O)O)cc1F; d2Nal = N[C@H](Cc1ccc2ccccc2c1)C(=O)O; Api = NC1(C(=O)O)CCNCC1; Ahx = NCCCCCC(=O)O; azaGly = NNC(=O)O; Sar = CNCC(=O)O
Record form. Attribute: pKi. Fill in for each entry.

Looking for the measured pKi of Cc1ccc(CNCC(=O)N2CCC(NC(=O)[C@H](CC(C)C)NC(=O)NNC(=O)[C@H](Cc3ccccc3)NC(=O)[C@@H](NC(=O)[C@H](CC(N)=O)NC(=O)[C@@H](Cc3c[nH]c4ccccc34)NC(=O)[C@H](N)Cc3ccc(O)cc3)[C@@H](C)O)(C(=O)N[C@@H](Cc3c[nH]c4ccccc34)C(N)=O)CC2)cc1F [Compound 402] (H-[dY][dW]NTF[azaGly]L[Api](Gly(N-(3-F-4-Me-benzyl)))W-NH2) , can you help?
> 8.00

Looking for the measured pKi of CNCC(=O)N1CCC(NC(=O)[C@H](CC(C)C)NC(=O)NNC(=O)[C@H](Cc2ccccc2)NC(=O)[C@@H](NC(=O)[C@H](CC(N)=O)NC(=O)[C@H](CCCCNC(=O)CN2CCN(CC(=O)O)CCN(CC(=O)O)CCN(CC(=O)O)CC2)NC(=O)[C@@H](Cc2ccc(O)cc2)NC(=O)CNCc2ccc(C)c(F)c2)[C@@H](C)O)(C(=O)N[C@H](Cc2c[nH]c3ccccc23)C(N)=O)CC1 [Compound 360] (H-[Gly(N-3-F-4-Me-benzyl)][dY]K(DOTA)NTF[azaGly]L[Api](Sar)[dW]-NH2) , can you help?
> 8.00

Looking for the measured pKi of CNCC(=O)N1CCC(NC(=O)[C@H](CC(C)C)NC(=O)NNC(=O)[C@H](Cc2ccccc2)NC(=O)[C@@H](NC(=O)[C@H](CC(N)=O)NC(=O)[C@@H](Cc2ccc3ccccc3c2)NC(=O)[C@@H](Cc2ccc(O)cc2)NC(=O)CCCCCNC(=O)CN2CCN(CC(=O)O)CCN(CC(=O)O)CCN(CC(=O)O)CC2)[C@@H](C)O)(C(=O)N[C@@H](Cc2c[nH]c3ccccc23)C(N)=O)CC1 [Compound 201] ({DOTA-Ahx}-[dY][d2Nal]NTF[azaGly]L[Api](Sar)W-NH2) , can you help?
> 8.00

* * *

- target_or_test_system: human kisspeptin receptor (Homo sapiens (Human))
- experimental_details: Human KISS1R binding assay (membrane competition binding)
- condition_context: 90 min at room temperature; competition with 0.2 nM [125I]-metastin (45-54); Flp-In T-Rex 293 kisspeptin membranes; metal complexes nonradioactive Ga, In, Lu; read-out: hKiSSR Binding Ki (90 min)
Numbered stars: 1 amine (or outer) side, 2 acyl side, 3 side chain; on linkers, the order of the positions; unused ones are H or OH. Square brackets hold non-standard residues; d marks the D form. Peptide text beside a SMILES is read from it. * marks the point of attachment. DOTA = O=C(O)CN1CCN(CC(=O)O)CCN(CC(=O)*)CCN(CC(=O)O)CC1; Gly(N-(3-F-4-Me-benzyl)) = Cc1ccc(CNCC(=O)*)cc1F; Bip = N[C@@H](Cc1ccc(-c2ccccc2)cc1)C(=O)O; d2Nal = N[C@H](Cc1ccc2ccccc2c1)C(=O)O; X1 = O=C(CN1CCC(N[*:1])CC1)[*:2]; 4Pal = N[C@@H](Cc1ccncc1)C(=O)O; Api = NC1(C(=O)O)CCNCC1; Ahx = NCCCCCC(=O)O; azaGly = NNC(=O)O
measurement_type: Ki

Request - read-out Ki | tested on human kisspeptin receptor (Homo sapiens (Human)) | compound Cc1ccc(CNCC(=O)N2CCC(NC(=O)[C@H](CC(C)C)NC(=O)CNC(=O)[C@H](Cc3ccccc3)NC(=O)CCCCCNC(=O)CN3CCN(CC(=O)O)CCN(CC(=O)O)CCN(CC(=O)O)CC3)(C(=O)N[C@@H](Cc3c[nH]c4ccccc34)C(N)=O)CC2)cc1F [Compound 10] ({DOTA-Ahx}-FGL[Api](Gly(N-(3-F-4-Me-benzyl)))W-NH2)
< 10 nM

Request - read-out Ki | tested on human kisspeptin receptor (Homo sapiens (Human)) | compound Cc1ccc(CNCC(=O)N2CCC(NC(=O)[C@H](CC(C)C)NC(=O)NNC(=O)[C@H](Cc3ccc(-c4ccccc4)cc3)NC(=O)CN3CCC(NC(=O)CN4CCN(CC(=O)O)CCN(CC(=O)O)CCN(CC(=O)O)CC4)CC3)(C(=O)N[C@@H](Cc3c[nH]c4ccccc34)C(N)=O)CC2)cc1F [Compound 142] ({DOTA}-[X1][Bip][azaGly]L[Api](Gly(N-(3-F-4-Me-benzyl)))W-NH2)
< 10 nM

Request - read-out Ki | tested on human kisspeptin receptor (Homo sapiens (Human)) | compound Cc1ccc(CNCC(=O)N2CCC(NC(=O)[C@H](CC(C)C)NC(=O)NNC(=O)[C@H](Cc3ccccc3)NC(=O)[C@@H](NC(=O)[C@H](CC(N)=O)NC(=O)[C@@H](Cc3ccc4ccccc4c3)NC(=O)CCCCCNC(=O)CN3CCN(CC(=O)O)CCN(CC(=O)O)CCN(CC(=O)O)CC3)[C@@H](C)O)(C(=O)N[C@@H](Cc3ccncc3)C(N)=O)CC2)cc1F [Compound 292] ({DOTA-Ahx}-[d2Nal]NTF[azaGly]L[Api](Gly(N-(3-F-4-Me-benzyl)))[4Pal]-NH2)
< 10 nM
